# Assay Explanation: Antiproliferative activity against human EB3 cells assessed as growth inhibition incubated for 3 days by MTT assay
# Type: functional
# Run Conditions: EB-3, 72 h
Quick reference for GI50 among some molecules

Molecule	GI50
CC(C)[C@H]1NC(=O)[C@@H](C)[C@@H](C/C=C\CCC(=O)O)NC(=O)[C@@H](Cc2ccc(O)cc2)NC(=O)[C@@H](C)NC1=O [AZUMAMIDE C]	> 25 µM
CCC(=O)CCCCC[C@@H]1NC(=O)[C@H]2CCCCN2C(=O)[C@H]([C@@H](C)CC)NC(=O)[C@H](Cc2cn(OC)c3ccccc23)NC1=O [APICIDIN]	0.8 µM
CCC[C@H]1NC(=O)[C@@H](Cc2ccc(O)cc2)NC(=O)[C@@H](C)NC(=O)[C@@H](C(C)C)NC(=O)[C@H]1C	> 50 µM

May I ask what GI50 has been recorded for CC(C)[C@H]1NC(=O)[C@@H](C)[C@@H](C/C=C\CCC(N)=O)NC(=O)[C@@H](Cc2ccc(O)cc2)NC(=O)[C@@H](C)NC1=O [AZUMAMIDE B] ?
> 50 µM

----------
# Tested Target: UniProt Q96DB2
# Sequence (Q96DB2 whole entry): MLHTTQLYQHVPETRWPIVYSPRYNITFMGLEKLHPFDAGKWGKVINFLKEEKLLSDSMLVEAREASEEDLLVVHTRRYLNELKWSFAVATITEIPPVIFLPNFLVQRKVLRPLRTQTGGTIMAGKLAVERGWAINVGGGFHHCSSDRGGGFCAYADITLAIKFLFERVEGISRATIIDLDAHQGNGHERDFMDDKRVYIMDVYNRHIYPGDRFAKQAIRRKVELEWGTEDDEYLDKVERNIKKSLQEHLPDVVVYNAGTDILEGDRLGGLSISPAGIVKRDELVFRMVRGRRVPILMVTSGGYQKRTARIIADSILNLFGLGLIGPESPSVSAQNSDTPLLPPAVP
# Assay Explanation: Inhibition of human recombinant HDAC11 using Ac-Leu-Gly-Lys (Ac)-AMC substrate incubated for 30 mins by fluorescence assay
Reported values of Ki for individual entries
Your answer should be a plain number; it is taken to be in µM.

Compound	Reported Result
CC(C)[C@H]1NC(=O)[C@@H](C)[C@@H](C/C=C\CCC(=O)O)NC(=O)[C@@H](Cc2ccc(O)cc2)NC(=O)[C@@H](C)NC1=O [AZUMAMIDE C]	0.06

Find Ki (UniProt Q96DB2) for the entry CCC[C@H]1NC(=O)[C@@H](Cc2ccc(O)cc2)NC(=O)[C@@H](C)NC(=O)[C@@H](C(C)C)NC(=O)[C@H]1C
6
